- target: XO (Bos taurus, UniProt P80457)
- Construct: purchased Roche Diagnostics (Mannheim, Germany)
- Sequence (P80457 whole entry): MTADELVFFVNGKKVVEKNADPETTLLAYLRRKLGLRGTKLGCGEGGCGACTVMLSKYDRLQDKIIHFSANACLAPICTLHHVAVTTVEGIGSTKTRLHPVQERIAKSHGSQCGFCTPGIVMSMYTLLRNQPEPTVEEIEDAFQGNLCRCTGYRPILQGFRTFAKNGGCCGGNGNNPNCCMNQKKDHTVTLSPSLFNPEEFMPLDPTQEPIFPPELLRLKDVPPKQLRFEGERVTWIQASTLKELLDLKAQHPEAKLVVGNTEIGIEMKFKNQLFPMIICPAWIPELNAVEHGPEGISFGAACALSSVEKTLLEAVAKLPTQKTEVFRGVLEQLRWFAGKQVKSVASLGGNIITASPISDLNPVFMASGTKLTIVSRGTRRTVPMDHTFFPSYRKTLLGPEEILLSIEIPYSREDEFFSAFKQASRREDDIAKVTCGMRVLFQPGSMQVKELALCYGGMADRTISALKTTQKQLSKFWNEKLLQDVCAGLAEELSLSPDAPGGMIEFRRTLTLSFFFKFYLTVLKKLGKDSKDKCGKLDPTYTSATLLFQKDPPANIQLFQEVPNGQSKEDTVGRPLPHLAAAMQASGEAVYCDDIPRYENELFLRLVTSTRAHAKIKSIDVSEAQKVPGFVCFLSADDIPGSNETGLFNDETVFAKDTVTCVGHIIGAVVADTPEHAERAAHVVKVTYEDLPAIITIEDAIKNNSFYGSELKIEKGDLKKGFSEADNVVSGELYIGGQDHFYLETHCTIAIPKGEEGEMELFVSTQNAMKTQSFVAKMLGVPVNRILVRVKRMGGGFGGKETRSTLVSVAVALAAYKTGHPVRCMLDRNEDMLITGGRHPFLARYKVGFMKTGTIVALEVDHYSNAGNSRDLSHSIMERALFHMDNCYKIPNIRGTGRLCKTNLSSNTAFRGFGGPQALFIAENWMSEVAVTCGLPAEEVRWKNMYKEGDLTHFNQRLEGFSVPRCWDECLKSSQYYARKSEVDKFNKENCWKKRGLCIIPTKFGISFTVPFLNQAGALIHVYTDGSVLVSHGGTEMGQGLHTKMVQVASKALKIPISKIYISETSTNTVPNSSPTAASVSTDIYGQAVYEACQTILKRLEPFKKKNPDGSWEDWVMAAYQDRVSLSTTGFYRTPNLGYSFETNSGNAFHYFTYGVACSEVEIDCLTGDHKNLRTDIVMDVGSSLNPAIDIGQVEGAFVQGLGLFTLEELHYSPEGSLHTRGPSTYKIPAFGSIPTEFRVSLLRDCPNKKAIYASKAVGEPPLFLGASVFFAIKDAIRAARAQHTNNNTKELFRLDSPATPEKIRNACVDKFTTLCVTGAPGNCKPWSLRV
- test: Circular dichroism (CD) analysis of XO secondary structure
- Set-up: species or system Bovine
- cond: molar ratio XO:inhibitor 1:5, pH 7.5 (free XO 19.7)
Could you please report measured α-Helix (%) of XO for the items listed next?
A complete answer gives the number followed by the unit.

Entry COc1cc(CC(=O)O)ccc1O [Homovanillic acid, homovanillic acid] — recorded α-Helix (%) of XO = 36.3%

Entry O=c1cc(-c2ccc(O)cc2)oc2cc(O)cc(O)c12 [Apigenin, apigenin] — recorded α-Helix (%) of XO = 10.8%

Entry O=c1c(O)c(-c2ccc(O)cc2)oc2cc(O)cc(O)c12 [Kaempferol, kaempferol] — recorded α-Helix (%) of XO = 17.1%

Entry O=C(O)/C=C/c1ccccc1 [Trans-cinnamic acid, trans-cinnamic acid] — recorded α-Helix (%) of XO = 36.4%

From: paper PMC9864848
